Test system: Plasma
method: Antioxidant activity against LDL-susceptible to oxidation in New Zealand White rabbit plasma assessed as increase in conjugated diene formation at 50 ug/mL after 30 mins
Type: functional, Oryctolagus cuniculus
Quick list: Conjugated diene increase per entry.
Form entry: value (%) — number only.

{"columns": ["smilesNotation", "unitLabel", "Conjugated diene increase"],
 "data": [
  ["COc1cc(/C=C/CO[C@@H]2O[C@H](CO[C@@H]3OC[C@](O)(CO)[C@H]3O)[C@@H](O)[C@H](O)[C@H]2O)ccc1O", "%", 7.3],
  ["COc1cc(/C=C/CO[C@@H]2O[C@H](CO[C@@H]3OC[C@](O)(CO)[C@H]3O)[C@@H](O)[C@H](O)[C@H]2O)cc(OC)c1O", "%", 12.2],
  ["COc1cc2c(=O)oc3c(OC)c(O)cc4c(=O)oc(c1OC)c2c34", "%", 21]
]}

Now for another entry.
Consider the compound COc1c(O)cc2c(=O)oc3c(OC)c(O)cc4c(=O)oc1c2c34 . State its measured Conjugated diene increase.
20.4

----------
Tested on: Brain
method: Antioxidant activity against lipid peroxidation in Wistar rat brain assessed as inhibition of malondialdehyde release at 50 ug/mL by thiobarbituric acid method relative to control
Assay type: functional, tissue-based
Parameters: scale not given: the % may be the effect or the level left
Quick list: Activity per entry.
Form entry: value (%) — number only.

Consider the reported Activity for these molecules:
{"columns": ["smilesNotation", "Activity (%)"],
 "data": [
  ["COc1cc2c(=O)oc3c(OC)c(O)cc4c(=O)oc(c1OC)c2c34", 31.1],
  ["COc1cc(/C=C/CO[C@@H]2O[C@H](CO[C@@H]3OC[C@](O)(CO)[C@H]3O)[C@@H](O)[C@H](O)[C@H]2O)cc(OC)c1O", 32.1],
  ["COc1cc(/C=C/CO[C@@H]2O[C@H](CO[C@@H]3OC[C@](O)(CO)[C@H]3O)[C@@H](O)[C@H](O)[C@H]2O)ccc1O", 35.6]
]}

Now for another entry.
Consider the molecule COc1c(O)cc2c(=O)oc3c(OC)c(O)cc4c(=O)oc1c2c34 . State its measured Activity.
28.1
